In this section, each of the sequences is paired with its reported switch fluorescence ratio.
Tested on: ATP;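 note: ATP exposure 15 min at 22 °C before imaging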
TEST SUMMARY: switch fluorescence ratio, 500 uM ATP over buffer (Cy3 cluster intensity, sum of 5 cycles each) (fold (ratio)); higher = stronger signal-on switching upon ATP binding; sequences stand for … in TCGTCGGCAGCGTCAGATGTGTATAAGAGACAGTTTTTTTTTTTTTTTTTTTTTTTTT…TC
CONDITION DETAILS: aptamer strand: ATP DNA aptamer (quencher-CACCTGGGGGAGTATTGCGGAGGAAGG + anchor), 100 nM annealed; ATP concentration: 500 uM
MEASURED QUANTITY: switch fluorescence ratio

| BIOSEQUENCE | EXPERIMENTAL TARGET | MEASURED QUANTITY | VALUE |
| --- | --- | --- | --- |
| GCTCATAAAA | ATP | switch fluorescence ratio | 1 |
| GGTTTTGTAG | ATP | switch fluorescence ratio | 0.999 |
| TTGAGCTTCA | ATP | switch fluorescence ratio | 1.11 |
| CGATAGGGGC | ATP | switch fluorescence ratio | 1.08 |
| GGCTTTGGGT | ATP | switch fluorescence ratio | 0.991 |
| TATGAGAGGC | ATP | switch fluorescence ratio | 1.04 |
| CTGAAGGTTG | ATP | switch fluorescence ratio | 0.974 |
| TGATATACTG | ATP | switch fluorescence ratio | 0.968 |
| CATTCGGATG | ATP | switch fluorescence ratio | 1.01 |
| AGGGTAGCGG | ATP | switch fluorescence ratio | 0.955 |
| AAGGAGGATT | ATP | switch fluorescence ratio | 1 |
| GCGTCTAATC | ATP | switch fluorescence ratio | 0.994 |
| AGGAGTAATT | ATP | switch fluorescence ratio | 1.01 |
| GGGAATCAAG | ATP | switch fluorescence ratio | 0.986 |
| TGGTTTGGCC | ATP | switch fluorescence ratio | 0.97 |
| GCGGGATTCG | ATP | switch fluorescence ratio | 0.998 |
| GGTTAGGGGG | ATP | switch fluorescence ratio | 1 |
| TATGTCGGTT | ATP | switch fluorescence ratio | 0.985 |
| TTATTTTGAC | ATP | switch fluorescence ratio | 1 |
| CTAATTTGGT | ATP | switch fluorescence ratio | 1.01 |
| CGGGAAGGGG | ATP | switch fluorescence ratio | 1.02 |
| TGGGCTGGCT | ATP | switch fluorescence ratio | 1 |
| GCGAGATCTT | ATP | switch fluorescence ratio | 0.968 |
| CCTAGAGGGT | ATP | switch fluorescence ratio | 1.07 |
| GGGTTTCGAG | ATP | switch fluorescence ratio | 1.04 |
| TTCGTACTAT | ATP | switch fluorescence ratio | 0.993 |
| TTATTAGCAA | ATP | switch fluorescence ratio | 1.93 |
| ATAAAGGGAT | ATP | switch fluorescence ratio | 1 |
| GGATGGGTAA | ATP | switch fluorescence ratio | 1.01 |
| GAGGGATATA | ATP | switch fluorescence ratio | 0.996 |
| TCGACCGGGG | ATP | switch fluorescence ratio | 1.04 |
| CTTACTATTC | ATP | switch fluorescence ratio | 0.972 |
| AAGGGCTTTT | ATP | switch fluorescence ratio | 1.01 |
| GGATACTCGC | ATP | switch fluorescence ratio | 1.13 |
| CGTATATAGT | ATP | switch fluorescence ratio | 1.01 |
| CATTGTGGGA | ATP | switch fluorescence ratio | 0.997 |
| ATTTGGTGCA | ATP | switch fluorescence ratio | 1.01 |
| AACTAATTTT | ATP | switch fluorescence ratio | 0.996 |
| GGAATATATA | ATP | switch fluorescence ratio | 0.951 |
| TGTAGGGAGG | ATP | switch fluorescence ratio | 0.966 |
| TCTTGTGAGT | ATP | switch fluorescence ratio | 0.984 |
| GAAGGCAGCG | ATP | switch fluorescence ratio | 1.03 |
| ATGACAGCGG | ATP | switch fluorescence ratio | 1.01 |
| ATAGAATGAT | ATP | switch fluorescence ratio | 0.995 |
| GAACCGTGTT | ATP | switch fluorescence ratio | 0.967 |
| TATGGGGAAT | ATP | switch fluorescence ratio | 1.03 |
| TACTTGAGCG | ATP | switch fluorescence ratio | 1.02 |
| ATGCACACCG | ATP | switch fluorescence ratio | 1.09 |
| GGCTGGTAGA | ATP | switch fluorescence ratio | 1 |
| TTTATTGGAA | ATP | switch fluorescence ratio | 0.986 |
| CATACAAGGG | ATP | switch fluorescence ratio | 1.02 |
| TAGAGGTGGG | ATP | switch fluorescence ratio | 1.21 |
| AGTGATTGCA | ATP | switch fluorescence ratio | 1.01 |
| AAGAGATAGT | ATP | switch fluorescence ratio | 1 |
| TCAAAATATA | ATP | switch fluorescence ratio | 0.987 |
| TGCGTTCAAG | ATP | switch fluorescence ratio | 0.972 |
| ATTTGGCGTG | ATP | switch fluorescence ratio | 1.01 |
| GGTAATTTGA | ATP | switch fluorescence ratio | 0.989 |
| TTCAGGACTC | ATP | switch fluorescence ratio | 0.973 |
| ACTTGAGGGT | ATP | switch fluorescence ratio | 1.05 |
| GCATTGGGGT | ATP | switch fluorescence ratio | 0.994 |
| TGTTATAGAT | ATP | switch fluorescence ratio | 0.987 |
| CAAGGATGTG | ATP | switch fluorescence ratio | 0.965 |
| GTAAAAAAAG | ATP | switch fluorescence ratio | 1.09 |
| GGCAGTAAGA | ATP | switch fluorescence ratio | 1.03 |
| CATCAAAAAT | ATP | switch fluorescence ratio | 1.29 |
| TATAAGACAT | ATP | switch fluorescence ratio | 1.03 |
| AAGCATGGGC | ATP | switch fluorescence ratio | 1.02 |
| TAAAATGTTG | ATP | switch fluorescence ratio | 1.03 |
| ACTTGGCACA | ATP | switch fluorescence ratio | 1.08 |
| AAAGGTCAGG | ATP | switch fluorescence ratio | 1 |
| GGGGGGTTGG | ATP | switch fluorescence ratio | 0.989 |
| GTTCGGGGCT | ATP | switch fluorescence ratio | 0.999 |
| GGGGAATAGT | ATP | switch fluorescence ratio | 1.26 |
| TGCAAAGGGG | ATP | switch fluorescence ratio | 1.01 |
| ATGTGGCTAG | ATP | switch fluorescence ratio | 1.01 |
| TTTCTTGTCA | ATP | switch fluorescence ratio | 0.996 |
| AACGTACGTT | ATP | switch fluorescence ratio | 1.14 |
| GAGTATATGT | ATP | switch fluorescence ratio | 1 |
| CCAATTCAAG | ATP | switch fluorescence ratio | 0.998 |
| CCAAGCGCTG | ATP | switch fluorescence ratio | 1.06 |
| ATACCGAGTA | ATP | switch fluorescence ratio | 1.01 |
| AAAAGTAAAG | ATP | switch fluorescence ratio | 0.987 |
| TTTGCATGCC | ATP | switch fluorescence ratio | 1.05 |
| AGAAAGGGGG | ATP | switch fluorescence ratio | 0.995 |
| GATTGTTGGA | ATP | switch fluorescence ratio | 1.02 |
